test system: MDA-MB-435; assay: Antiproliferative activity against human MDA-MB-435 cells assessed as inhibition of cell growth incubated for 5 days by MTT assay; type: functional, cell-based; conditions: MDA-MB-435, 120 h
pIC50: −log10 of the molar value.
Assign label 1 to entries whose pIC50 meets or exceeds 5; assign label 0 to the rest.

test-smiles	assigned-class
CC(C)(C)c1cc2c(c(O)n1)[n+](Cc1ccccc1)c1ccccn21	label 0
COc1ccc2c(c1)[nH]c1c(C)nccc12	label 0
Cc1nc(C(C)(C)C)cc2c1[n+](Cc1ccccc1)c1ccccn21	label 0
COc1nc(-c2ccccc2)cc2c1[n+](Cc1ccccc1)c1ccccn21.[Br-]	label 1
CC[n+]1c2c(-c3ccccc3)nc(C3CC3)cc2n2ccccc21	label 0
CCOC(=O)c1cc2c(c(C)n1)[n+](Cc1ccccc1)c1ccccn21	label 0

* * *

Reported Activity by item:
tested on: MDA-MB-231; experiment: Induction of apoptosis in human MDA-MB-231 cells assessed as late apoptotic cells at 30 uM incubated for 48 hrs by annexin V-FITC/PI based flow cytometric analysis (reference value: 2.94 %); format: functional
result-type: Activity

test-smiles	result-type	result
COc1nc(C2CC2)cc2c1[n+](Cc1ccccc1)c1ccccn21.[Br-]	Activity	26.7%
COc1nc(-c2ccccc2)cc2c1[n+](Cc1ccccc1)c1ccccn21.[Br-]	Activity	33.6%
Cc1nc(-c2ccccc2)cc2c1[n+](Cc1ccccc1)c1ccccn21.[Br-]	Activity	13.4%
COc1nc(C(C)(C)C)cc2c1[n+](Cc1ccccc1)c1ccccn21.[Br-]	Activity	30.4%

* * *

Each record here notes measured viability at 3 µM.
tested on: MDA-MB-231; experiment: Induction of apoptosis in human MDA-MB-231 cells assessed as viable cells at 3 uM incubated for 48 hrs by annexin V-FITC/PI based flow cytometric analysis (reference value: 93.7 %); format: functional; conditions: read-out: Activity

test-smiles	assayed-target	viability at 3 µM, %
COc1nc(C2CC2)cc2c1[n+](Cc1ccccc1)c1ccccn21.[Br-]	MDA-MB-231	91.8
COc1nc(C(C)(C)C)cc2c1[n+](Cc1ccccc1)c1ccccn21.[Br-]	MDA-MB-231	92.4
Cc1nc(-c2ccccc2)cc2c1[n+](Cc1ccccc1)c1ccccn21.[Br-]	MDA-MB-231	92.9
COc1nc(-c2ccccc2)cc2c1[n+](Cc1ccccc1)c1ccccn21.[Br-]	MDA-MB-231	90.2
